experiment: Tissue distribution of [14C]-ganaxolone; conditions: mouse, rat, brain
Metric: Kp

Consider the compound CC(=O)[C@H]1CC[C@H]2[C@@H]3CC[C@H]4C[C@](C)(O)CC[C@]4(C)[C@H]3CC[C@]12C [ganaxolone, 3α-hydroxy-3β-methyl-5α-pregnan-20-one] and give its measured Kp.
~5

----------
assay: Phase 2A study (Magnolia) in women with postpartum depression: ganaxolone plasma concentrations / pharmacokinetics; conditions: female, human, plasma, intravenous, 86 μg/kg/hr, Mean average GNX Concentration, calculated for dose 86 μg/kg/hr; time 24 hr
Metric: concentration at 24 h (ng/mL)
Please state the figure in ng/mL; there is no need to write the unit.

Request the reported concentration at 24 h associated with CC(=O)[C@H]1CC[C@H]2[C@@H]3CC[C@H]4C[C@](C)(O)CC[C@]4(C)[C@H]3CC[C@]12C [ganaxolone, 3α-hydroxy-3β-methyl-5α-pregnan-20-one]
91.2

----------
experiment: Phase 2A study (Magnolia) in women with postpartum depression: ganaxolone plasma concentrations / pharmacokinetics; conditions: female, human, plasma, iv, 220 ug/kg, AUC12-24, calculated from Table 1C; dose 220 μg/kg/hr (row order of Table 1C)
Metric: AUC (ng·h/mL)
Lab book: enter the figure in ng·h/mL, no units written.

I would be grateful if you could share the reported AUC for CC(=O)[C@H]1CC[C@H]2[C@@H]3CC[C@H]4C[C@](C)(O)CC[C@]4(C)[C@H]3CC[C@]12C [ganaxolone, 3α-hydroxy-3β-methyl-5α-pregnan-20-one] .
2650

----------
experiment: Phase 2A study (Magnolia) in women with postpartum depression: ganaxolone plasma concentrations / pharmacokinetics; settings: female, human, plasma, iv, GNX Concentration, Cohort 1: IV 4 mg/hr for 48 h then 2 mg/hr for 12 h; individual subjects; time 12 hr
Metric: concentration at 12 h (ng/mL)
Just the number please, in ng/mL, no unit attached.

Consider the compound shown here: CC(=O)[C@H]1CC[C@H]2[C@@H]3CC[C@H]4C[C@](C)(O)CC[C@]4(C)[C@H]3CC[C@]12C [ganaxolone, 3α-hydroxy-3β-methyl-5α-pregnan-20-one] What is its recorded concentration at 12 h?
58.8

----------
test: Phase 2A study (Magnolia) in women with postpartum depression: ganaxolone plasma concentrations / pharmacokinetics; conditions: female, human, plasma, intravenous, 260 μg/kg/hr, Mean average GNX Concentration, calculated for dose 260 μg/kg/hr; time 12 hr
Metric: concentration at 12 h (ng/mL)
Value expressed in ng/mL; do not type the unit.

Could you tell me which concentration at 12 h is on file for CC(=O)[C@H]1CC[C@H]2[C@@H]3CC[C@H]4C[C@](C)(O)CC[C@]4(C)[C@H]3CC[C@]12C [ganaxolone, 3α-hydroxy-3β-methyl-5α-pregnan-20-one] ?
246

----------
test: Phase 2A study (Magnolia) in women with postpartum depression: ganaxolone plasma concentrations / pharmacokinetics; conditions: female, human, plasma, intravenous, 160 μg/kg/hr, Mean average GNX Concentration, calculated for dose 160 μg/kg/hr; time 12 hr
Metric: concentration at 12 hr

Endpoint output: concentration at 12 hr of CC(=O)[C@H]1CC[C@H]2[C@@H]3CC[C@H]4C[C@](C)(O)CC[C@]4(C)[C@H]3CC[C@]12C [ganaxolone, 3α-hydroxy-3β-methyl-5α-pregnan-20-one] . Value?
151 ng/mL

----------
assay: Solubility of ganaxolone; details: 95% alcohol, organic solvent or mixture
Metric: solubility

Could you share which solubility value was measured for CC(=O)[C@H]1CC[C@H]2[C@@H]3CC[C@H]4C[C@](C)(O)CC[C@]4(C)[C@H]3CC[C@]12C [ganaxolone, 3α-hydroxy-3β-methyl-5α-pregnan-20-one] ?
13 mg/mL

----------
Assay: Phase 2A study (Magnolia) in women with postpartum depression: ganaxolone plasma concentrations / pharmacokinetics
Details: female, human, plasma, iv, 170 ug/kg, AUC12-24, calculated from Table 1C; dose 170 μg/kg/hr (row order of Table 1C)
Method: Approximately 200 women with PPD 18 to 45 years of age are screened to randomize up to 100 subjects across up to 6 cohorts. Approximately 10-30 subjects are randomized into each cohort. Randomized subjects receive the investigational product (IP), ganaxolone or matching placebo in a 1:1 ratio. In Cohorts 1-5 the IP is administered intravenously over 60 hours. In Cohort 6 the dosing is initiated with a 6-hour intravenous (IV) infusion followed by oral dosing for 28 days plus 3-day taper. […]
Metric: AUC (ng·h/mL)
Report the figure in ng·h/mL without appending any unit label.

Looking for the measured AUC of CC(=O)[C@H]1CC[C@H]2[C@@H]3CC[C@H]4C[C@](C)(O)CC[C@]4(C)[C@H]3CC[C@]12C [ganaxolone, 3α-hydroxy-3β-methyl-5α-pregnan-20-one] , can you help?
2050

----------
assay: Phase 2A study (Magnolia) in women with postpartum depression: ganaxolone plasma concentrations / pharmacokinetics; settings: female, human, plasma, intravenous, 200 μg/kg/hr, Mean average GNX Concentration, calculated for dose 200 μg/kg/hr; time 24 hr
Metric: concentration at 24 h

If you can, please state the reported concentration at 24 h value of CC(=O)[C@H]1CC[C@H]2[C@@H]3CC[C@H]4C[C@](C)(O)CC[C@]4(C)[C@H]3CC[C@]12C [ganaxolone, 3α-hydroxy-3β-methyl-5α-pregnan-20-one] .
212 ng/mL

----------
experiment: Phase 2A study (Magnolia) in women with postpartum depression: ganaxolone plasma concentrations / pharmacokinetics; details: female, human, plasma, iv, 260 ug/kg, AUC24-48, calculated from Table 1C; dose 260 μg/kg/hr (row order of Table 1C)
Metric: AUC (ng·h/mL)
Express your answer in ng·h/mL, writing the number without its unit.

Quick one: AUC for CC(=O)[C@H]1CC[C@H]2[C@@H]3CC[C@H]4C[C@](C)(O)CC[C@]4(C)[C@H]3CC[C@]12C [ganaxolone, 3α-hydroxy-3β-methyl-5α-pregnan-20-one] ?
6960

----------
test: Phase 2A study (Magnolia) in women with postpartum depression: ganaxolone plasma concentrations / pharmacokinetics; conditions: female, human, plasma, iv, 210 ug/kg, AUC24-48, calculated from Table 1C; dose 210 μg/kg/hr (row order of Table 1C)
Metric: AUC (ng·h/mL)
// note: answer is a bare numeric in ng·h/mL

Which measured AUC value corresponds to CC(=O)[C@H]1CC[C@H]2[C@@H]3CC[C@H]4C[C@](C)(O)CC[C@]4(C)[C@H]3CC[C@]12C [ganaxolone, 3α-hydroxy-3β-methyl-5α-pregnan-20-one] ?
5620

----------
test: Phase 2A study (Magnolia) in women with postpartum depression: ganaxolone plasma concentrations / pharmacokinetics; details: female, human, plasma, iv, 210 ug/kg, AUC12-48, calculated from Table 1C; dose 210 μg/kg/hr (row order of Table 1C)
Metric: AUC
In your response, the unit should come after the numeric value.

AUC for CC(=O)[C@H]1CC[C@H]2[C@@H]3CC[C@H]4C[C@](C)(O)CC[C@]4(C)[C@H]3CC[C@]12C [ganaxolone, 3α-hydroxy-3β-methyl-5α-pregnan-20-one] ?
8150 ng·h/mL

----------
test: Phase 2A study (Magnolia) in women with postpartum depression: ganaxolone plasma concentrations / pharmacokinetics; settings: female, human, plasma, intravenous, 190 μg/kg/hr, Mean average GNX Concentration, calculated for dose 190 μg/kg/hr; time 48 hr
Metric: concentration at 48 h (ng/mL)
Reply with just the number (in ng/mL).

// concentration at 48 h lookup, key: CC(=O)[C@H]1CC[C@H]2[C@@H]3CC[C@H]4C[C@](C)(O)CC[C@]4(C)[C@H]3CC[C@]12C [ganaxolone, 3α-hydroxy-3β-methyl-5α-pregnan-20-one]
222

----------
experiment: Phase 2A study (Magnolia) in women with postpartum depression: ganaxolone plasma concentrations / pharmacokinetics; conditions: female, human, plasma, iv, 170 ug/kg, AUC12-48, calculated from Table 1C; dose 170 μg/kg/hr (row order of Table 1C)
Metric: AUC (ng·h/mL)
Express it in ng·h/mL; write the number only.

Given CC(=O)[C@H]1CC[C@H]2[C@@H]3CC[C@H]4C[C@](C)(O)CC[C@]4(C)[C@H]3CC[C@]12C [ganaxolone, 3α-hydroxy-3β-methyl-5α-pregnan-20-one] , state its recorded AUC.
6600

----------
experiment: Phase 2A study (Magnolia) in women with postpartum depression: ganaxolone plasma concentrations / pharmacokinetics; conditions: female, human, plasma, iv, 260 ug/kg, AUC12-48, calculated from Table 1C; dose 260 μg/kg/hr (row order of Table 1C)
Metric: AUC

May I ask what AUC has been recorded for CC(=O)[C@H]1CC[C@H]2[C@@H]3CC[C@H]4C[C@](C)(O)CC[C@]4(C)[C@H]3CC[C@]12C [ganaxolone, 3α-hydroxy-3β-methyl-5α-pregnan-20-one] ?
10100 ng·h/mL

----------
assay: Phase 2A study (Magnolia) in women with postpartum depression: ganaxolone plasma concentrations / pharmacokinetics; settings: female, human, plasma, intravenous, 150 μg/kg/hr, Mean average GNX Concentration, calculated for dose 150 μg/kg/hr; time 24 hr
Metric: concentration at 24 hr (ng/mL)
Express it in ng/mL; write the number only.

Please give the measured concentration at 24 hr for this compound: CC(=O)[C@H]1CC[C@H]2[C@@H]3CC[C@H]4C[C@](C)(O)CC[C@]4(C)[C@H]3CC[C@]12C [ganaxolone, 3α-hydroxy-3β-methyl-5α-pregnan-20-one]
159
